Target: c-Kit (V560G) (Homo sapiens (Human), UniProt P10721, V560G)
Sequence (P10721 26-976 V560G): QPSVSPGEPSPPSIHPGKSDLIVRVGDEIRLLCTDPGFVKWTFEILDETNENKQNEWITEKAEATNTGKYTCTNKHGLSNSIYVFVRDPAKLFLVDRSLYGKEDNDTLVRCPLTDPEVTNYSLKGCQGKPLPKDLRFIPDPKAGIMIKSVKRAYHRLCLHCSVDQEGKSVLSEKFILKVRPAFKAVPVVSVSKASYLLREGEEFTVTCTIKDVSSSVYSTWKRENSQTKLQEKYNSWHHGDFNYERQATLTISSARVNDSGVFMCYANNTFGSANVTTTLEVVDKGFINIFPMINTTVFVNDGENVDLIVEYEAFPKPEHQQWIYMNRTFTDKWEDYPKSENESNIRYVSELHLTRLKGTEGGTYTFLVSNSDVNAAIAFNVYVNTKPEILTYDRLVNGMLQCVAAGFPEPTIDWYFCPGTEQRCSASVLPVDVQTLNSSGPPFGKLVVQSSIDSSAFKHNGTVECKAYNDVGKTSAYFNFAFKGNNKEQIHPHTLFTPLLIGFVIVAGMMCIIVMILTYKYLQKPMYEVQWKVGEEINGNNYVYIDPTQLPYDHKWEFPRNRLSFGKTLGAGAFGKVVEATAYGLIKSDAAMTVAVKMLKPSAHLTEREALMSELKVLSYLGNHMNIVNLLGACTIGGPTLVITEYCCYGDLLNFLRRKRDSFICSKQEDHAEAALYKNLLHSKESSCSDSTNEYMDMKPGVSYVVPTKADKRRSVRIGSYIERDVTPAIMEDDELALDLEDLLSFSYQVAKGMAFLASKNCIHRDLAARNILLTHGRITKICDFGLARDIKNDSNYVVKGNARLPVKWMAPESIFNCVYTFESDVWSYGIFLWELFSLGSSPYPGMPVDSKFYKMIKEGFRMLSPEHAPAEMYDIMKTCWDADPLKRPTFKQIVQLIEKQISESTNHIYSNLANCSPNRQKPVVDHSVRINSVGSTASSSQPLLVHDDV
Experiment: 33P-ATP kinase assay, c-Kit (V560G)
Assay type: biochemical
Conditions: 33P-ATP assay; ATP concentration 30 μM
READOUT_LABEL: IC50 (nM)

* Cc1ccc(NC(=O)c2ccc3c(c2)CC[C@@H]3N2CCN(C)CC2)cc1Nc1nccc(-c2cccnc2)n1 [EXAMPLE 11] | 1.77

* * *

Reported IC50 by item:
Target: c-Kit (Homo sapiens (Human), UniProt P10721)
Sequence (P10721 26-976): as the sequence (P10721 26-976 V560G) above, with G535V counted along it
Assay: Mobility Shift Assay of c-Kit kinase enzyme activity
Assay type: biochemical
Conditions: ATP at Km 87 μM, 40 minutes at 28° C., pre-activated c-Kit
READOUT_LABEL: IC50 (nM)

- Cc1ccc(NC(=O)c2ccc3c(c2)CC[C@@H]3N2CCN(C)CC2)cc1Nc1nccc(-c2ccncc2)n1: 526
- Cc1ccc(NC(=O)c2ccc3c(c2)CCC3N2CCNCC2)cc1Nc1nccc(-c2cccnc2)n1 (stereo not shown): 16
- Cc1ccc(NC(=O)c2ccc3c(c2)CCC3N2CCN(C)CC2)cc1Nc1nccc(-c2cccnc2)n1 (stereo not shown): 22
- CC(=O)N1CCN(C2CCc3cc(C(=O)Nc4ccc(C)c(Nc5nccc(-c6cccnc6)n5)c4)ccc32)CC1 (stereo not shown): 529

* * *

Target: c-Kit (T670I) (Homo sapiens (Human), UniProt P10721, T670I)
Sequence (P10721 26-976 T670I): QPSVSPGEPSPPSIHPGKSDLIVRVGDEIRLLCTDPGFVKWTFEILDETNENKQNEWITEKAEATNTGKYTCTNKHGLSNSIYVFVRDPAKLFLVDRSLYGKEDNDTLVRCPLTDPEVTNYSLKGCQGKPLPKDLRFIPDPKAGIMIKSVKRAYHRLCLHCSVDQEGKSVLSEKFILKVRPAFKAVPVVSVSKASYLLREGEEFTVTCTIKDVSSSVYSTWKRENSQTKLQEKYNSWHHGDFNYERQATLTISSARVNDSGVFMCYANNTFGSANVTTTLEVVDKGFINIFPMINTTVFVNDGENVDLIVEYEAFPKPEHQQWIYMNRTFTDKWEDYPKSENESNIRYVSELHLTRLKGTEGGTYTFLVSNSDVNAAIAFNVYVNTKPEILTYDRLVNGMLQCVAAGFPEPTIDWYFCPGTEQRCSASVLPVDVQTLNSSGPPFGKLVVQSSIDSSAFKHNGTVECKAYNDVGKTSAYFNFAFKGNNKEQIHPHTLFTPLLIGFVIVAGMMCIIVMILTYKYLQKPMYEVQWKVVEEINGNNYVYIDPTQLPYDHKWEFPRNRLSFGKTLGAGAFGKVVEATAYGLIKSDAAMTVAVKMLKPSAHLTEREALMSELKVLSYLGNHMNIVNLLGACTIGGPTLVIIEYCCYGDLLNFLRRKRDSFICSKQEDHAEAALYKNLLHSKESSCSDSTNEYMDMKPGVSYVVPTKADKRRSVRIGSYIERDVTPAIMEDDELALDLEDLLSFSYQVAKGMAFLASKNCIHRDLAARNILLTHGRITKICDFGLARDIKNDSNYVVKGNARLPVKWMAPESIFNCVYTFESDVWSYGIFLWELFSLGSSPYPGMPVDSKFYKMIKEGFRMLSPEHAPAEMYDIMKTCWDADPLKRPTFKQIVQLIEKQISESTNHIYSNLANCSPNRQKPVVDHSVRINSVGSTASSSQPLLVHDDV
Experiment: 33P-ATP kinase assay, c-Kit (T670I)
Assay type: biochemical
Details: 33P-ATP assay; ATP concentration 30 μM
READOUT_LABEL: IC50 (nM)

• Cc1ccc(NC(=O)c2ccc3c(c2)CC[C@@H]3N2CCN(C)CC2)cc1Nc1nccc(-c2cccnc2)n1 [EXAMPLE 11] = 2060

* * *

Reported IC50 by item:
Target: c-Kit (Homo sapiens (Human))
Experiment: Mobility Shift Assay of c-Kit kinase enzyme activity
Type: biochemical
Details: ATP at Km 87 μM, 40 minutes at 28° C., pre-activated c-Kit
READOUT_LABEL: IC50 (nM)

• Cc1ccc(NC(=O)c2ccc3c(c2)CC[C@H]3N2CCN(C)CC2)cc1Nc1nccc(-c2cncnc2)n1 [EXAMPLE 14] = 2260
• Cc1ccc(NC(=O)c2ccc3c(c2)CCC3N2CC[C@H](N(C)C)C2)cc1Nc1nccc(-c2cccnc2)n1 (stereo partly shown) [EXAMPLE 9] = 51
• Cc1ccc(NC(=O)c2ccc3c(c2)CCC3N2CCN(C(C)C)CC2)cc1Nc1nccc(-c2cccnc2)n1 (stereo not shown) [EXAMPLE 5] = 23
• Cc1ccc(NC(=O)c2ccc3c(c2)CCC3N2CCN(C)CC2)cc1Nc1nccc(-c2cncnc2)n1 (stereo not shown) [EXAMPLE 8] = 32

* * *

Target: c-Kit (Homo sapiens (Human), UniProt P10721)
Assay: Mobility Shift Assay of c-Kit kinase enzyme activity
Type: biochemical
Conditions: ATP at Km 87 μM, 40 minutes at 28° C., pre-activated c-Kit
READOUT_LABEL: IC50 (nM)

* Cc1ccc(NC(=O)c2ccc3c(c2)CCC3N2CCN(C(=O)OC(C)(C)C)CC2)cc1Nc1nccc(-c2cccnc2)n1 (centres unmarked) | 1190
* Cc1ccc(NC(=O)c2ccc3c(c2)CC[C@@H]3N2CCN(C)CC2)cc1Nc1nccc(-c2cccnc2)n1 | 8.5
* Cc1ccc(NC(=O)c2ccc3c(c2)CC[C@@H]3N2CCN(C)CC2)cc1Nc1nccc(-c2cncnc2)n1 | 15
* Cc1ccc(NC(=O)c2ccc3c(c2)CC[C@H]3N2CCN(C)CC2)cc1Nc1nccc(-c2cccnc2)n1 | 2250
* Cc1ccc(NC(=O)c2ccc3c(c2)CCC3N2CCN(CCO)CC2)cc1Nc1nccc(-c2cccnc2)n1 (centres unmarked) | 32
